Data origin: patent US10071992B2

- Assay Info: Metabolic clearance in HLM (hepatic clearance profile)
- Format: in vitro ADME
- Test Parameters: human, human liver microsomes, read-out: Clint, app in HLM
Measurement Label: microsomal CLint (µL/min/mg)
# output: bare number, implied unit µL/min/mg

CCOc1ccccc1O[C@@H]1CCCN(c2ncc(C(=O)NC(C)(C)CO)cn2)C1 [WO2015140658 Example 19.21, reference compound] = 121

Would you kindly look at the next entry?
*Q* Look up microsomal CLint for this compound: CCOc1cccnc1Oc1cncc(-c2ncc(C(=O)NC(C)(C)CO)cn2)c1 [Example 5]
*A* 18

###

# key: entry, value: log10(IC50)
- Assay Target: human DGAT2 (hDGAT2) (Homo sapiens (Human))
- Sequence (Q96PD7 whole entry): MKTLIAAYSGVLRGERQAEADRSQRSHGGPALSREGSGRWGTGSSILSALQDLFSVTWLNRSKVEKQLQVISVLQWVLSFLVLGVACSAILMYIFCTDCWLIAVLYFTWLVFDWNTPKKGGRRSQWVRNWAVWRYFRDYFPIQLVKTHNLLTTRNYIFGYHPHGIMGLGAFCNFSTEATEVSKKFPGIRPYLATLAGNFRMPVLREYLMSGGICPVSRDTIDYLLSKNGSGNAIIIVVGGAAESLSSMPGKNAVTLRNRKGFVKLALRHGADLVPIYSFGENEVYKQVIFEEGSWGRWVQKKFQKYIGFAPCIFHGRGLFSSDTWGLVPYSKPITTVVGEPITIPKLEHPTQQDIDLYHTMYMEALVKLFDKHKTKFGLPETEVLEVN
- Assay Info: In vitro DGAT2 assay, determination of IC50 values for DGAT2 inhibitors
- Format: biochemical
- Test Parameters: geometric mean; hDGAT2 membrane fraction, [1-14C]decanoyl-CoA and 1,2-didecanoyl-sn-glycerol
Scale: decimal log of IC50, IC50 in nM.

CCOc1cccnc1Oc1cncc(-c2ncc(C(=O)NC3CCS(=O)(=O)C3)cn2)c1 (stereo not drawn) = 2.29

*Q* Lab note: need log10(IC50) with human DGAT2 (hDGAT2) (Homo sapiens (Human)) for entry O=C(N[C@H]1CCOC1)c1cnc(-c2cncc(Oc3ncccc3OCCF)c2)nc1 , please look it up.
*A* 1.82

*Q* Another compound to look at: CCOc1cccnc1Oc1cncc(-c2ncc(C(=O)NC(C)(CO)CO)cn2)c1
*A* 1.92

###

- Assay Target: UniProt Q96PD7
- Assay Info: In vitro DGAT2 assay, determination of IC50 values for DGAT2 inhibitors
- Format: biochemical
- Test Parameters: Table 3, comparison with WO2015140658 Example 19.21
Measurement Label: pIC50
Would you please state pIC50, meaning minus log10 of the concentration in mol/L, as a bare number?

CCOc1cccnc1Oc1cncc(-c2ncc(C(=O)NC(C)(C)CO)cn2)c1 = 7.85

Would you kindly look at the next entry?
*Q* Look up pIC50 for this compound: CCOc1ccccc1O[C@@H]1CCCN(c2ncc(C(=O)NC(C)(C)CO)cn2)C1 [WO2015140658 Example 19.21, reference compound]
*A* 8.10

###

- Assay Target: DGAT2 (Homo sapiens (Human), UniProt Q96PD7)
- Assay Info: IC50 values for DGAT2 inhibitors in human hepatocytes
- Test Parameters: geometric mean, N=10; cryopreserved human hepatocytes, DGAT1 inhibitor at 3 μM present, [1,3-14C]-glycerol incorporation
Measurement Label: pIC50
Would you please state pIC50, meaning minus log10 of the concentration in mol/L, as a bare number?

*Q* Lab note: need pIC50 with DGAT2 (Homo sapiens (Human), UniProt Q96PD7) for entry CCOc1cccnc1Oc1cncc(-c2ncc(C(=O)N[C@H]3CCOC3)cn2)c1 , please look it up.
*A* 8.55

###

- Assay Target: human DGAT2 (hDGAT2) (Homo sapiens (Human))
- Assay Info: In vitro DGAT2 assay, determination of IC50 values for DGAT2 inhibitors
- Format: biochemical
- Test Parameters: geometric mean; hDGAT2 membrane fraction, [1-14C]decanoyl-CoA and 1,2-didecanoyl-sn-glycerol
- Description: Recombinant baculovirus for the FLAG-tagged hDGAT2 was generated in SF9 insect cells using Bac-to-Bac baculovirus expression system (Invitrogen) according to the manufacturer's protocol. For the expression of hDGAT2, SF9 cells (20 L) grown in Sf90011 media were infected with hDGAT2 baculovirus at a multiplicity of infection of 1 in a Wave Bioreactor System 20/50P wave bag (GE Healthcare). After 40 hours of infection, the cells were then harvested by centrifugation at 5,000×g. […]
# key: entry, value: pIC50
Would you please state pIC50, meaning minus log10 of the concentration in mol/L, as a bare number?

Recorded pIC50, per entry:
CCOc1nccnc1Oc1cncc(-c2ncc(C(=O)NC(C)(C)CO)cn2)c1 = 6.62
CCOc1cccnc1Oc1cncc(-c2ncc(C(=O)N[C@H]3CCOC3)nn2)c1 = 6.74

Would you kindly look at the next entry?
*Q* Look up pIC50 for this compound: CCOc1cccnc1Oc1cncc(-c2ncc(C(=O)NC3(C)CCS(=O)(=O)C3)cn2)c1 (stereo not drawn)
*A* 7.87
